Listing of recorded IC50 by entry.
# Tested on: Vero
# method-description: Compound was tested for in vitro cytotoxicity against VERO (African green monkey kidney) cell line
# Type: functional, cell-based
# assay-context: Chlorocebus sabaeus
measured-parameter: IC50

INSERT INTO results (molecule, experimental_value) VALUES
  ('C[C@H]1[C@@H](CCCC(=O)O)O[C@@H]2OC3(C)CCC4[C@H](C)CC[C@@H]1[C@]42OO3 (single isomer, unassigned)', '30 µg/mL'),
  ('C[C@@H]1CC[C@H]2[C@@H](C)C(=O)O[C@@H]3O[C@@]4(C)CC[C@@H]1[C@]32OO4 [ARTEMISININ]', '31 µg/mL'),
  ('CCN(CC)Cc1ccc(C(=O)O[C@@H]2O[C@@H]3OC4(C)CCC5[C@H](C)CC[C@@H]([C@H]2C)[C@]53OO4)cc1 (single isomer, unassigned)', '15 µg/mL'),
  ('CCCC[C@H]1O[C@@H]2OC3(C)CC[C@H]4[C@H](C)CC[C@@H]([C@H]1C)[C@@]24OO3 (single isomer, unassigned)', '15 µg/mL'),
  ('C[C@@H]1CC[C@H]2[C@@H](C)CO[C@@H]3OC4(C)CC[C@@H]1[C@]32OO4 (single isomer, unassigned) [DEOXOARTEMISININ]', '30 µg/mL'),
  ('CC[C@H]1O[C@@H]2O[C@@]3(C)CC[C@H]4[C@H](C)CC[C@@H]([C@H]1C)[C@@]24OO3', '30 µg/mL');

----------
Listing of recorded IC50 by entry.
# Test system: P388
# method-description: Compound was tested for in vitro cytotoxicity against P388 (murine lymphocytic leukemia) cell line
# Type: functional, cell-based
# assay-context: Mus musculus
measured-parameter: IC50 (µg/mL)

INSERT INTO assay_data (molecule, measured_parameter, experimental_value) VALUES
  ('CC[C@H]1O[C@@H]2O[C@@]3(C)CC[C@H]4[C@H](C)CC[C@@H]([C@H]1C)[C@@]24OO3', 'IC50', 5.5),
  ('C[C@@H]1CC[C@H]2[C@@H](C)C(=O)O[C@@H]3O[C@@]4(C)CC[C@@H]1[C@]32OO4 [ARTEMISININ]', 'IC50', 28),
  ('C[C@@H]1CCC2[C@@H](C)CCO[C@@H]3OC4(C)CCC1C23OO4 (single isomer, unassigned)', 'IC50', 8),
  ('CCCC[C@H]1O[C@@H]2OC3(C)CC[C@H]4[C@H](C)CC[C@@H]([C@H]1C)[C@@]24OO3 (single isomer, unassigned)', 'IC50', 40);

----------
# Tested on: Vero
# method-description: Compound was tested for in vitro cytotoxicity against VERO (African green monkey kidney) cell line
# Type: functional, cell-based
# assay-context: Chlorocebus sabaeus
Listing of recorded IC50 by entry.
measured-parameter: IC50 (µg/mL)

INSERT INTO results (compound, assayed_target, unit_tag, experimental_value) VALUES
  ('C[C@@H]1CCC2[C@@H](C)CCO[C@@H]3OC4(C)CCC1C23OO4 (single isomer, unassigned)', 'Vero', 'µg/mL', 30),
  ('CCO[C@H]1O[C@@H]2OC3(C)CCC4[C@H](C)CC[C@@H]([C@H]1C)[C@]42OO3 (single isomer, unassigned)', 'Vero', 'µg/mL', 28),
  ('C[C@H]1[C@@H](Cc2ccccc2)O[C@@H]2OC3(C)CCC4[C@H](C)CC[C@@H]1[C@]42OO3 (single isomer, unassigned)', 'Vero', 'µg/mL', 15);

Data provenance is ChEMBL document CHEMBL1129913.
